molecular target: hTRPM8 (Homo sapiens); experiment: Assay on TRPM8 modulators: calcium imaging (Fluo-4, Flexstation) in HEK293 cell line stably expressing hTRPM8; conditions: TRPM8 agonist activity, calcium influx, HEK293 stably expressing hTRPM8, sigmoidal dose-response fit
Sequence (Q7Z2W7 whole entry): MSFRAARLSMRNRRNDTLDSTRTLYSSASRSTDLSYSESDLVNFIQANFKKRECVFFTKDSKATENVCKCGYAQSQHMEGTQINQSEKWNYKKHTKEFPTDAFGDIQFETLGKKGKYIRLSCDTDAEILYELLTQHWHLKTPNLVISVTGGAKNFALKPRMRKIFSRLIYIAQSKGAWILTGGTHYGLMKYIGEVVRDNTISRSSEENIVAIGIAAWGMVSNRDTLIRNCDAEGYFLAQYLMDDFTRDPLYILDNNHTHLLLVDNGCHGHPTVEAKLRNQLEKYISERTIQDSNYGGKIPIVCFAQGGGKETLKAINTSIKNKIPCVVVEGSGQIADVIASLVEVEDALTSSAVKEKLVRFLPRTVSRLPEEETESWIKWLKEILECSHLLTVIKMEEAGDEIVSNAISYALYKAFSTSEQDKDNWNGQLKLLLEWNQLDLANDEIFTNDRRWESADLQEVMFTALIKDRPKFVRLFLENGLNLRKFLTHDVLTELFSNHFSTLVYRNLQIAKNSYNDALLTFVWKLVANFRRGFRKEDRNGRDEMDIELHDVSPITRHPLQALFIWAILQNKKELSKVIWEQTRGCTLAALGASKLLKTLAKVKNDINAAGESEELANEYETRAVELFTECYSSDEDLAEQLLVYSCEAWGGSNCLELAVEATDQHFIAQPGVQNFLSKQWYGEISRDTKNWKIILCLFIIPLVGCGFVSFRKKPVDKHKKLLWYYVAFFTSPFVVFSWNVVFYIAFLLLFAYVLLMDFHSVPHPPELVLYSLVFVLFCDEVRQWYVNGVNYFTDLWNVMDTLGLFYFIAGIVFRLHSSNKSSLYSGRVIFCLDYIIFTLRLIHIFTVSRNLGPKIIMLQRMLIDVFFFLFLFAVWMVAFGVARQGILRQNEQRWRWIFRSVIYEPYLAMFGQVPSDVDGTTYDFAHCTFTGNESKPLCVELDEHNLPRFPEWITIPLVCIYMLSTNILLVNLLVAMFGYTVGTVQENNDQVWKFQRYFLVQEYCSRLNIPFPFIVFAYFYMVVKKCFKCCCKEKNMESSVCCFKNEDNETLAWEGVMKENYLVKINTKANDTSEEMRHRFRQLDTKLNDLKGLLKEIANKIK
quantity_measured: EC50

Ask | Dear colleague, I am looking for the recorded EC50 of the following compound: `Cc1ccc(OCCN2CCN(C)CC2)c(Cc2ccc(Cl)s2)c1`
Reply | 1000 to 35000 nM

Ask | Record request: EC50 value, item `Cc1cc(C)c(OCCN2CCOCC2)c(Cc2c(F)cccc2F)c1`
Reply | 50 to 300 nM

Ask | Suppose we examine the compound `COc1cc(C(C)(C)C)cc(Cc2ccccc2)c1OCCN1CCN(C)CC1` ; what EC50 value has been reported?
Reply | 1000 to 35000 nM

Ask | What measured EC50 goes with `Cc1cc(C)c(OCCN2CCOCC2)c(Cc2ccccc2C#N)c1` ?
Reply | < 50 nM

Ask | Could you tell me which EC50 is on file for `Cc1cc(C)c(OCCN2CCN(C)CC2)c(Cc2ccccc2I)c1` ?
Reply | 300 to 1000 nM

Ask | Which EC50 is reported for this compound? `Cc1cc(C)c(OCCN2CCN(C)CC2)c(Cc2cccnc2)c1`
Reply | 1000 to 35000 nM

Ask | Entry under review: Cc1ccc(CC(O)CN2CCN(C)CC2)c(Cc2ccccc2)c1 (stereo not drawn) . Reported EC50?
Reply | 300 to 1000 nM

Ask | Look at this compound and give its reported EC50. `Cc1cc(C)c(OCCN2CCN(C)CC2)c(Cc2ccccc2)c1`
Reply | 300 to 1000 nM

Ask | Consider the compound shown here: `Cc1cc(C)c(OCCN2CCN(C)CC2)c(Cc2ccncc2)c1` What is its recorded EC50?
Reply | 1000 to 35000 nM
